- Test system: SU-DHL-6
- Experimental Protocol: Cell proliferation Ex.3
- Format: cell-based
- Test Context: Homo sapiens, SU-DHL-6, 72 h
Assay Readout: IC50

Q: Look at this molecule and give its reported IC50. `C#C[C@]1(CO)O[C@@H](n2cc(F)c(N)nc2=O)C[C@@H]1O`
Result: > 10 µM

###

- Test system: SW-1783
- Experimental Protocol: Cell proliferation CellTiterGlo Ex.2
- Assay type: cell-based
- Test Context: Homo sapiens, SW1783; SW-1783 (Brain), 72 h
Assay Readout: IC50 (nM)
Response body: numeric value in nM, unit text excluded.

Q: Look at this compound and give its reported IC50. C#C[C@]1(CO)O[C@@H](n2cnc3c(=O)[nH]c(N)nc32)C[C@@H]1O [compound 13]
Result: 2250

###

- Tested on: NCI-H1581
- Experimental Protocol: Cell proliferation CellTiterGlo Ex.2
- Type: cell-based
- Test Context: Homo sapiens; NCI-H1581 (Lung), 72 h
Assay Readout: IC50 (nM)
Response body: numeric value in nM, unit text excluded.

Q: Look at this compound and give its reported IC50. `C#C[C@]1(CO)O[C@@H](n2cnc3c(=O)[nH]c(N)nc32)C[C@@H]1O`
Result: 2970

###

- System: TE671
- Experimental Protocol: Cell proliferation Ex.3
- Assay type: cell-based
- Test Context: Homo sapiens, TE-671; TE671, 120 h
pIC50: −log10 of the molar value.
Assay Readout: pIC50

Q: Look at this compound and give its reported pIC50. `C#C[C@]1(CO)O[C@@H](n2cc(F)c(N)nc2=O)C[C@@H]1O`
Result: < 5.00

###

- Tested on: HCC38
- Experimental Protocol: Cell proliferation CellTiterGlo Ex.2
- Type: cell-based
- Test Context: Homo sapiens; HCC38 (Breast), 72 h
Assay Readout: pIC50
Scale note: pIC50 = -log10(concentration in M).

Q: Look at this compound and give its reported pIC50. `C#C[C@]1(CO)O[C@@H](n2cnc3c(=O)[nH]c(N)nc32)C[C@@H]1O`
Result: 5.20

###

- System: NCIH460
- Experimental Protocol: Cell proliferation Ex.3
- Format: cell-based
- Test Context: Homo sapiens, NCI-H460; NCIH460, 72 h
Assay Readout: IC50

Q: Look at this compound and give its reported IC50. `C#C[C@]1(CO)O[C@@H](n2cc(F)c(N)nc2=O)C[C@@H]1O`
Result: > 10 µM

###

- System: 786O
- Experimental Protocol: Cell proliferation Ex.3
- Format: cell-based
- Test Context: Homo sapiens, 786-0, 120 h
Assay Readout: IC50

Q: Look at this compound and give its reported IC50. `C#C[C@]1(CO)O[C@@H](n2cc(F)c(N)nc2=O)C[C@@H]1O`
Result: > 10 µM

###

- System: NCIH358M
- Experimental Protocol: Cell proliferation Ex.3
- Assay type: cell-based
- Test Context: NCI-H358M, 168 h
- Description: A dose response relationship on cell proliferation was assessed for Compound 13 on 140 tumor cell lines. […] Cells were cultured in the appropriate media. […] […] on the medium, cell plates were equilibrated to room temperature for one hour, CellTiterGlo reagent (Promega) was added and luminescence was measured approximately an hour later using a luminometer. […]
Assay Readout: IC50 (nM)
Response body: numeric value in nM, unit text excluded.

Q: Look at this compound and give its reported IC50. C#C[C@]1(CO)O[C@@H](n2cc(F)c(N)nc2=O)C[C@@H]1O [compound 9]
Result: 670
